Tested on: TLR2 induced IL-6 in peripheral blood mononuclear cells (PBMCs)
Assay: PBMC TLR2 Induced IL-6 Assay
Format: cell-based, human
Conditions: Homo sapiens, PBMC, PBMC TLR2 Induced IL-6 Assay; lipoteichoic acid stimulation, IL-6 by ELISA; read-out: Cell IC50
quantity-kind: IC50 (nM)
Dear colleague, please return just the value in nM, with no unit written.

// known answers, use as guide
>>> print(df.to_string())
                                   compound  quantity_kind  units_label  result
0  CC(C)Nc1cc(-n2ncc3cc(C#N)cnc32)ncc1C(=O)Nc1cc2cc[nH]c2cn1 [Example 223]           IC50           nM     178
1  CC(C)CC(=O)NCc1cnc2c(cnn2-c2cc(NC(C)C)c(C(=O)NC[C@@H](F)C(C)(C)O)cn2)c1 [Example 280]           IC50           nM     692
2  CC(C)(O)[C@H](F)CNC(=O)c1cnc(-n2cnc3cc(Cl)cnc32)cc1Nc1cnn(CCC#N)c1 [Example 374]           IC50           nM      85
3  CC(C)Nc1cc(-n2ncc3cc(C#N)cnc32)ncc1C(=O)NCCC(C)NS(C)(=O)=O (stereo not shown) [Example 264]           IC50           nM     338
4  CNC(=O)[C@H]1CC[C@H](NC(=O)c2cnc(-n3ccc4cncnc43)cc2NC(C)C)CC1 [Example 81]           IC50           nM     565

Exam item: State its IC50 for this compound: CC(C)Nc1cc(-n2ncc3cc(Cl)cnc32)ncc1C(=O)NCC(F)C1(O)COC1 (stereo not shown) [Example 258]
Marked response: 42

Exam item: State its IC50 for this compound: C[C@@H](CO)Nc1cc(-n2ccc3cc(C#N)cnc32)ncc1C(=O)NC[C@@H](F)C(C)(C)O [Example 9]
Marked response: 43
